Values were extracted from ChEMBL document CHEMBL1147943.

Measured TGI of individual entries
Test system: A2780
Test: Antiproliferative activity against human A2780 cells
Assay type: functional

compound: C[Si](C)(C)C1=C(Cl)C[C@H](Cc2ccccc2)O[C@@H]1CCCCCCCCCC1C=C(Cl)CCO1 (stereo partly drawn)
u: µM
TGI: 47
--
compound: CC[C@H]1CC(Cl)=C([Si](C)(C)C)[C@@H](C2CCCCC2)O1
u: µM
TGI: 35
--
compound: C[C@@H]1O[C@H](CCC=C(Br)Br)C([Si](C)(C)C)=C(Cl)[C@H]1C
u: µM
TGI: 33
--
compound: C=CCC[C@H]1O[C@@H](C)[C@H](C)C(Cl)=C1[Si](C)(C)C
u: µM
TGI: 36
--
compound: C[Si](C)(C)C1=C(Cl)C[C@H](C2CCCCC2)O[C@@H]1C1CCCCC1
u: µM
TGI: 46
--
compound: C[C@H]1CC(Cl)=C[C@@H](C2CCCCC2)O1
u: µM
TGI: 38
--
compound: ClC1=CC(CCC=C(Br)Br)OCC1 (stereo not drawn)
u: µM
TGI: 53
--
compound: C[C@@H]1O[C@H](C2CCCCC2)C([Si](C)(C)C)=C(Cl)[C@H]1C
u: µM
TGI: 38
